test system: Hek293T; assay: Primary qHTS to identify gynecologic anti-cancer compounds using libraries of approved drugs and bioactive compounds (AID 1345084); settings: Gynecologic cancer cell panel viability, ATPlite luminescence, 48 h, control line for the selectivity index; series mostly up to 57.5 µM; note: nearly all actives have a fitted effect of over 55% in size
Records with an inconclusive call do not appear. The source made the active and inactive calls. Calls come from the whole dose curve; as a rule, active = well fitted cell-killing curve with a large enough effect; inconclusive = small, poorly fitted or top-dose-only effect, or effect the other way; inactive = flat fitted curve, though single readings scatter.
Labels: True = active, False = inactive

INSERT INTO measurements (compound, tested_target, cat) VALUES
  ('CN(C)CCCNC(=O)c1ccc(-c2cc(O)c3ncccc3c2)cc1', 'Hek293T', 'False'),
  ('CS(=O)(=O)c1ccc(C2=C(c3ccccc3)C(=O)OC2)cc1', 'Hek293T', 'False'),
  ('Cc1cnc(Nc2cccc(CN3CCOCC3)c2)nc1Nc1cccc(S(=O)(=O)NC(C)(C)C)c1', 'Hek293T', 'False'),
  ('O=S(=O)(O)c1ccc2cc(N=Nc3cc(S(=O)(=O)O)c4cccnc4c3O)ccc2c1', 'Hek293T', 'False'),
  ('O=C(CC12CC3CC(CC(C3)C1)C2)Nc1cccc2nc(NCCNCCO)ccc12', 'Hek293T', 'False'),
  ('Cc1ccccc1-n1c(Cn2nc(-c3cccc(O)c3)c3c(N)ncnc32)nc2cccc(C)c2c1=O', 'Hek293T', 'False'),
  ('CC(=O)Nc1cccc(-n2c(=O)n(C3CC3)c(=O)c3c(Nc4ccc(I)cc4F)n(C)c(=O)c(C)c32)c1', 'Hek293T', 'False'),
  ('COc1ccc(CCC(=O)Nc2nc3ccc(Cl)cc3s2)cc1OC', 'Hek293T', 'False'),
  ('CN1CCN(c2cccc(Nc3nc4c(-c5ccc(S(C)(=O)=O)cc5)cccn4n3)c2)CC1', 'Hek293T', 'False'),
  ('CN1CCC(COc2cnc(-c3cccc(Cn4nc(-c5cccc(C#N)c5)ccc4=O)c3)nc2)CC1', 'Hek293T', 'False'),
  ('O=C(Nc1cccc(C(F)(F)F)c1)Nc1cc(S(=O)(=O)NC2CC2)ccc1-c1ccsc1', 'Hek293T', 'False'),
  ('Cc1ccc2c(c1)C(=O)[C@]1(O)CCN(c3ccccc3)C1=N2', 'Hek293T', 'False'),
  ('O=C(CCCN1CCN(c2ccc(F)cc2)CC1)NC1c2ccccc2CSc2ccccc21 (centres undefined)', 'Hek293T', 'False'),
  ('CNC(=O)c1c(-c2ccc(F)cc2)oc2cc(N(CCO)S(C)(=O)=O)c(C3CC3)cc12', 'Hek293T', 'False'),
  ('C[C@@]1(c2cc(-c3cncnc3)c(F)cc2F)CCSC(N)=N1', 'Hek293T', 'False'),
  ('Cc1ccccc1C(=O)c1ccc(Nc2ccc(Br)cc2N)cc1Cl', 'Hek293T', 'False'),
  ('CCC(=O)N1CCN(c2ccc(-n3c(=O)ccc4cnc5ccc(-c6cnc7ccccc7c6)cc5c43)cc2C(F)(F)F)CC1', 'Hek293T', 'True'),
  ('Cc1nc2c([nH]1)CCN(C(=O)c1ccc(NC(=O)c3ccccc3-c3ccccc3)cc1)c1ccccc1-2', 'Hek293T', 'False'),
  ('CC(C)(C)c1nc(-c2cccc(NS(=O)(=O)c3c(F)cccc3F)c2F)c(-c2ccnc(N)n2)s1', 'Hek293T', 'False');

All values here come from PubChem BioAssay (NCATS).
